Test: NCI Yeast Anticancer Drug Screen. Data for the rad14 strain (AID 159);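 also: 0% = growth of vehicle-treated control cultures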
Details: S. cerevisiae rad14 strain growth inhibition; at 11.0 µM; stronger effect = higher value
This is part of a sample that, as a whole, favours compounds with a hit. Of some 79,000 tested, about 15% had one in any assay.
Task for the reader: assign each of the following compounds its reported growth inhibition.
Answer format: numeric, % implied, no suffix.

Measured growth inhibition of O=C(c1ccccc1)C1C(c2ccccc2[N+](=O)[O-])N1C1CCCCC1 (stereo unspecified) : 7

Measured growth inhibition of Oc1ccc2nc3ccccc3nc2c1 : 18

Measured growth inhibition of Cc1ccc2nc3sc(=O)sc3nc2c1 : 99

Measured growth inhibition of [N-]=[N+]=C1C(Cl)=C(Cl)C(Cl)=C1Cl : 44

Measured growth inhibition of O=[N+]([O-])c1ccc(-n2nc3ccc4c(no[n+]4[O-])c3[n+]2[O-])c([N+](=O)[O-])c1 : 7

Measured growth inhibition of OCC(O)C(O)CO (stereo unspecified) (tested in a mixture with another compound) : -4

----------
Test: NCI Yeast Anticancer Drug Screen. Data for the rad14 strain (AID 159);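 also: 0% = growth of vehicle-treated control cultures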
Conditions: S. cerevisiae rad14 strain growth inhibition; at 11.0 µM
Procedure: Growth inhibition of yeast strains with defined genetic alterations is measured as a screen for potential anti-cancer activity. Selected strains with alterations in DNA damage repair or cell cycle control were exposed to compounds and growth inhibition was measured relative to vehicle treated controls. The strain used in this assay is rad14
Compounds without any hit were thinned out: in the full panel of roughly 79,000, 15% have a hit. The source made the active and inactive calls. Rule as the data show it: active = growth inhibition above about 70%; inactive = the rest.
Please answer using one outcome listed in active, inactive

Ask: Hi, sorry to bother you, what did the test record for C[N+](C)(C)CC1CCCC(C[N+](C)(C)C)C1=O (stereo unspecified) ?
Result: inactive

Ask: Hi, sorry to bother you, what did the test record for CCCCN(CCCC)CC(C(C)=O)C(c1ccccc1)c1c(O)c2ccccc2oc1=O (stereo unspecified) ?
Result: inactive

Ask: Hi, sorry to bother you, what did the test record for O=C1C2CC(Cl)C(SSC3CC4C(=O)N(SC(Cl)(Cl)C(Cl)Cl)C(=O)C4CC3Cl)CC2C(=O)N1SC(Cl)(Cl)C(Cl)Cl (stereo unspecified) ?
Result: active

Ask: Hi, sorry to bother you, what did the test record for c1ccc(N=c2nc(N3CCOCC3)ss2)cc1 ?
Result: inactive

Ask: Hi, sorry to bother you, what did the test record for CCC1(O)C(=O)OCc2c1cc1n(c2=O)Cc2cc3ccccc3nc2-1 (stereo unspecified) ?
Result: inactive

Ask: Hi, sorry to bother you, what did the test record for Nc1nc(N)c(-c2ccc(Cl)c(Cl)c2)c(CP(Cl)(Cl)(Cl)Br)n1 ?
Result: inactive

Ask: Hi, sorry to bother you, what did the test record for CSc1ccccc1[As](C)C ?
Result: active

Ask: Hi, sorry to bother you, what did the test record for Cc1c([N+](=O)[O-])oc2ccc3ccccc3c12 ?
Result: active

Ask: Hi, sorry to bother you, what did the test record for CC1=C2C(=C[C@@](C)(CO)[C@@H]2O)C(=O)[C@](C)(O)C12CC2 ?
Result: inactive

Ask: Hi, sorry to bother you, what did the test record for C[C@]12CCC(=O)C=C1CC[C@@H]1C2CC[C@@]2(C)C1CC[C@@H]2OC(=O)C12OC1CCC2=O (stereo partly specified) ?
Result: inactive

Ask: Hi, sorry to bother you, what did the test record for CC[C@](O)(C(=O)O)c1cc2n(c(=O)c1CO)Cc1cc3ccccc3nc1-2 ?
Result: active
